- measured-on: LXRa:RXRa (Homo sapiens, UniProt Q13133;P19793 full;full)
- Sequence (Q13133 whole entry, chain 1 of 2): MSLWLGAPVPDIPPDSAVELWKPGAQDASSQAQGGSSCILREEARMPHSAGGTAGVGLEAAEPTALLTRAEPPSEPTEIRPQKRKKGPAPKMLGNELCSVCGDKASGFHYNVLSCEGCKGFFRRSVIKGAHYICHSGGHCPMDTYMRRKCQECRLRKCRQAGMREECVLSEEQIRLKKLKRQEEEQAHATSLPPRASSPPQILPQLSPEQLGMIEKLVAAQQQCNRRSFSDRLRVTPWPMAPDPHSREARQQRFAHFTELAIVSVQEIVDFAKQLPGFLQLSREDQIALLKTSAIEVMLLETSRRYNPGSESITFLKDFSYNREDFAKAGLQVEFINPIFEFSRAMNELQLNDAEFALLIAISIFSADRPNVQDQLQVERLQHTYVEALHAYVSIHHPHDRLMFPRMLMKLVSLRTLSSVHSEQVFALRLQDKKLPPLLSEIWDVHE
- Sequence (P19793 whole entry, chain 2 of 2): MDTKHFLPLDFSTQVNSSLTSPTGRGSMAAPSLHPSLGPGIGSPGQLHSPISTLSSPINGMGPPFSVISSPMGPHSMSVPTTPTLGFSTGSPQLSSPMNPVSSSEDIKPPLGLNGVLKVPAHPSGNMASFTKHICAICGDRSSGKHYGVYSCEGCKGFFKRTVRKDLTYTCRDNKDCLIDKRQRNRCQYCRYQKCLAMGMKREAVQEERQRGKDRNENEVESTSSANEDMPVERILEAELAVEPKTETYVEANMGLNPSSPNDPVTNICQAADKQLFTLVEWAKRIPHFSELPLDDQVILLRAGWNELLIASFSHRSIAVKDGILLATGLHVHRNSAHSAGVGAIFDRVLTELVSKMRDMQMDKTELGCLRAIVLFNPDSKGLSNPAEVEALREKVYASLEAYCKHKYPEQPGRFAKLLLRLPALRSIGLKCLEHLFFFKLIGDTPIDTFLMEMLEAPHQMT
- protocol-summary: no ligand; PBM; 270 nM : 90 nM RXRa; PBS pH 7.4, 2% milk, 0.02% Triton X-100, 1 mM DTT, BSA, 0.4 mg/ml salmon testes DNA
- condition-description: tags: His kept;His cleaved; copies: 1;1; label: surface-attached array probe
measure-name: binding signal

## Input Give the measured binding signal of NRC3_wobSeed121_DR5_C7A_o1 (dsDNA) DNA 1: GCCAAAATAGGTCACCGGAAGGTCAAAGTCCGCATGGCGATTGACAGCGTAGAATGAAGG DNA 2: CCTTCATTCTACGCTGTCAATCGCCATGCGGACTTTGACCTTCCGGTGACCTATTTTGGC .
## Output 7 PBM z-score against 500 random probes
